Overview of recorded EC50 (pM), PBMC IFN gamma assay, run 2 for various binders
# target.system: T1, IL-18 receptor (IL-18Rα and IL-18Rβ) (UniProt Q13478 19-541; O95256 20-599, limits assumed)
# T1 sequence (looked up) 1: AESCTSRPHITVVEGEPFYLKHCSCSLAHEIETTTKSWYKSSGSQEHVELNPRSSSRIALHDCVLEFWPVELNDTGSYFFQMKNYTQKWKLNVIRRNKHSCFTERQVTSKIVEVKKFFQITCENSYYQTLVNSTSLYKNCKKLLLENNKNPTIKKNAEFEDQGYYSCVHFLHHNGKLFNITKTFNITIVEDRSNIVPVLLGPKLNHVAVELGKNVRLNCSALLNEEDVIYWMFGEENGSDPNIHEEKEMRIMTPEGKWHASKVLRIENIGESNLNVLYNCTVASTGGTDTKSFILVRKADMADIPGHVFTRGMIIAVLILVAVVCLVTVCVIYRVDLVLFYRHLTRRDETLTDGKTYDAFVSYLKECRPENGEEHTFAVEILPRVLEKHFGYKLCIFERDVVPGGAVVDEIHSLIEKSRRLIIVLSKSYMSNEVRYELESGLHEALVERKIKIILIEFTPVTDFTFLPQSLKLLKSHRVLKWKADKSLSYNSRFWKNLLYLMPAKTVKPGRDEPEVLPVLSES
# T1 sequence (looked up) 2: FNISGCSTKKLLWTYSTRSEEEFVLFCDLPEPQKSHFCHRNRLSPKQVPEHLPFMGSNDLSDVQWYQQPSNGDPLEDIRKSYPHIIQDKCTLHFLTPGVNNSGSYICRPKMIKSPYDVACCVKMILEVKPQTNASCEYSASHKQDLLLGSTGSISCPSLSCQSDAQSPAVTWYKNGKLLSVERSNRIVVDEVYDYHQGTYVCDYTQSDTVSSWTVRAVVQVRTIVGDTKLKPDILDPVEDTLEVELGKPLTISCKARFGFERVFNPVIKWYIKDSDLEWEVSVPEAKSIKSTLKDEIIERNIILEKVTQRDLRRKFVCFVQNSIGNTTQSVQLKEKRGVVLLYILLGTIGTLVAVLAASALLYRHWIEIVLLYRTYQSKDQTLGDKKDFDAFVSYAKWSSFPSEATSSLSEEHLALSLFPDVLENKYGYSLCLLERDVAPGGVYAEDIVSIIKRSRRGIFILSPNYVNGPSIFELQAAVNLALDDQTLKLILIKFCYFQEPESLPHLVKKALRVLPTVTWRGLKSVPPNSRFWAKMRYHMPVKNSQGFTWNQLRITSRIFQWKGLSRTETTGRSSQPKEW
# test: cell-based or functional assay

EC50 (pM), PBMC IFN gamma assay, run 2 for hIL18 (G3V, K53S, M60K) - KiH (Fc fusion) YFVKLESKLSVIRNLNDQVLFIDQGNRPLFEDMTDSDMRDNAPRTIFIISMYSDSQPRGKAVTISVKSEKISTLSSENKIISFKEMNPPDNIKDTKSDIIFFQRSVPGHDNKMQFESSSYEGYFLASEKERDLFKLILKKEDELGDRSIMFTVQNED ? 535 pM

EC50 (pM), PBMC IFN gamma assay, run 2 for hIL18 (G3T, K53A, M60K) - KiH (Fc fusion) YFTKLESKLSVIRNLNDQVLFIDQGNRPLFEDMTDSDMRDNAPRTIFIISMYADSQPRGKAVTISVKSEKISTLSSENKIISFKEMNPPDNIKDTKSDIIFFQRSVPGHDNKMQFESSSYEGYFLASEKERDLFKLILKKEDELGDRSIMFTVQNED ? 214 pM

EC50 (pM), PBMC IFN gamma assay, run 2 for hIL18 (G3V, E6K, K53S, M60K) - KiH (Fc fusion) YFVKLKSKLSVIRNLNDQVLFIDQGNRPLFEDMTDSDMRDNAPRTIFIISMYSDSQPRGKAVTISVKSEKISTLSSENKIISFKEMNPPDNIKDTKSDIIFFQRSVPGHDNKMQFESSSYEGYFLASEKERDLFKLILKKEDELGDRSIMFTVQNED ? 21.6 pM
